System: Wolbachia pipientis
procedure.text: Anti-Wolbachia Cell-Based Screen
Format: functional
Set-up: scale not given: in the data most compounds retested in dose-response had high values
condition: 5 µM
In all, about 48,000 compounds went through this assay and about 13,000 (27%) showed an effect of 50% or more. Some of the results follow.
Listing of entries alongside the reported Percent Effect.
quantity: Percent Effect (%)

{"compound": "CC(C)CC(NC(=O)c1cc(C2CC2)n[nH]1)c1ncnn1C (centres undefined)", "target.entity": "Wolbachia pipientis", "reported.value": -18.23}
{"compound": "Cc1noc(C(C)N2CCN(CC(=O)N3CCCC3)CC2)n1 (centres undefined)", "target.entity": "Wolbachia pipientis", "reported.value": 104.8}
{"compound": "O=C(NCC(F)(F)F)NC1CCCc2c1cnn2CCO (centres undefined)", "target.entity": "Wolbachia pipientis", "reported.value": 2.681}
{"compound": "Cc1noc(C(C)N2CCN(CCn3ccccc3=O)CC2)n1 (centres undefined)", "target.entity": "Wolbachia pipientis", "reported.value": 1.866}

====

Each entry below carries its reported Percent Effect.
Tested on: Wolbachia pipientis
procedure.text: Anti-Wolbachia Cell-Based Screen
Type: functional
Set-up: scale not given: in the data most compounds retested in dose-response had high values
condition: 5 µM
Out of some 48,000 compounds screened, about 13,000 (27%) showed an effect of 50% or more. Some of the results follow.
quantity: Percent Effect

{"compound": "Cc1nc(C)c(C(=O)N2CCCC(n3ccnc3C)C2)s1 (stereo not drawn)", "target.entity": "Wolbachia pipientis", "reported.value": "110.6%"}
{"compound": "Cc1noc(C2CCCN(C(=O)c3ccc(Cl)cc3F)C2)n1 (stereo not drawn)", "target.entity": "Wolbachia pipientis", "reported.value": "-0.5657%"}
{"compound": "O=C(c1cscn1)N1CC[C@H]2C[C@H](c3nnc(C4CC4)o3)O[C@@H]2C1", "target.entity": "Wolbachia pipientis", "reported.value": "101.5%"}

====

Tested on: Wolbachia pipientis
procedure.text: Anti-Wolbachia Cell-Based Screen
Format: functional
Design: scale not given: in the data most compounds retested in dose-response had high values
condition: 5 µM
Among all 48,000 compounds or so, about 13,000 (27%) showed an effect of 50% or more. The list shows a part of the results.
// reported Percent Effect per item
quantity: Percent Effect (%)

{"compound": "O=C(O)C(F)(F)F.O=C(O)C(F)(F)F.O=C(O)C(F)(F)F.O=C(O)c1c(-c2cncnc2)ncc2c1CCN(Cc1cccnc1)C2", "reported.value": 96.39}
{"compound": "Cn1nccc1-c1ncc2c(c1C(=O)O)CCN(Cc1ccccc1)C2.O=C(O)C(F)(F)F.O=C(O)C(F)(F)F.O=C(O)C(F)(F)F", "reported.value": -10.76}
{"compound": "CCOc1ccc(-c2c(-c3ccccc3)ncn2C2CCNC2)cn1 (stereo not drawn)", "reported.value": 5.482}
{"compound": "Cn1nccc1-c1ncc2c(c1C(=O)O)CCN(Cc1cccnc1)C2.O=C(O)C(F)(F)F.O=C(O)C(F)(F)F", "reported.value": -4.341}
{"compound": "Cc1nc(NC(=O)COCC(F)(F)F)ccc1Br", "reported.value": 2.547}
{"compound": "O=C(C[C@@H]1COC[C@H]2CN(C3CCCC3)C[C@@H]12)NCc1cccnc1.O=C(O)C(F)(F)F.O=C(O)C(F)(F)F", "reported.value": 105.3}
{"compound": "Cc1n[nH]c(NC(=O)c2ccc(COCC(F)(F)F)cc2)c1C", "reported.value": 90.05}
{"compound": "O=C(Nc1cc[nH]n1)c1ccc(COCC(F)(F)F)cc1", "reported.value": 87.88}
{"compound": "COc1cccc(-c2ccc3nc(C4CCN(C(C)=O)CC4)nn3c2)c1", "reported.value": 108.3}
{"compound": "O=C(Nc1ccnc(OC2CCOC2)c1)C1CCC1 (stereo not drawn)", "reported.value": -17.8}
{"compound": "Cc1nc(C)n(CCCNc2ncnc(C)c2C)n1", "reported.value": -4.271}
{"compound": "CCc1noc(CN2CCN(c3nccs3)CC2)n1", "reported.value": 91.95}
{"compound": "CCc1nc(CNCC2CCCN2c2cc(NC)ncn2)cs1 (stereo not drawn)", "reported.value": 9.196}
{"compound": "CC(c1cccc(-c2cn(Cc3ccoc3)nn2)c1)N(C)C (stereo not drawn)", "reported.value": -9.392}
{"compound": "Cc1cnc(CNC(=O)C[C@@H]2COC[C@H]3CN(C4CCC4)C[C@@H]23)cn1", "reported.value": -2.895}
{"compound": "Cc1occc1CNC(=O)N(CCCO)C1CCc2ccccc21 (stereo not drawn)", "reported.value": -0.08809}
{"compound": "COc1cccnc1NC(=O)COC1CCCC1", "reported.value": 13.24}
{"compound": "CCCc1n[nH]c(C2CN(C(=O)c3cccc4cn[nH]c34)CCO2)n1 (stereo not drawn)", "reported.value": 108.2}
{"compound": "CCc1cnc(N)nc1NCCCN1CCCCC1CO (stereo not drawn)", "reported.value": 90.38}
{"compound": "CCCc1n[nH]c(C2CN(C(=O)c3cccc4[nH]ncc34)CCO2)n1 (stereo not drawn)", "reported.value": 117.3}
{"compound": "CC(=O)N1CCC(c2nc3ccc(C)cn3n2)CC1", "reported.value": 109.2}
{"compound": "CCOc1cncc(NCCc2nnc3ccccn23)n1", "reported.value": -20.41}
{"compound": "Cn1cnc2c1CCN(CC(=O)N(Cc1ccccc1F)C1CC1)C2", "reported.value": -0.08141}
{"compound": "CCC(C#N)NC(=O)COC1CCCCC1 (stereo not drawn)", "reported.value": 0.5871}
{"compound": "Cc1cnc(NCCCN2CCCCC2CO)nc1 (stereo not drawn)", "reported.value": 67.94}
{"compound": "CCc1cnc(N)nc1NCCC(=O)NC1CCCCC1", "reported.value": 31.74}
{"compound": "CN(C(=O)CN1CCCC1Cc1ccccc1)c1ccccc1 (stereo not drawn)", "reported.value": 21.48}
{"compound": "CCOc1no[n+]([O-])c1-c1ccccc1", "reported.value": 142.4}
{"compound": "CN(C)C(=O)N1CCC(c2nc3ccc(-c4ccccc4)cn3n2)CC1", "reported.value": 107}
{"compound": "CC(C)c1n[nH]c(C2CN(C(=O)c3cccc4cn[nH]c34)CCO2)n1 (stereo not drawn)", "reported.value": 2.376}
{"compound": "N#CCCN(CC1CC1)S(=O)(=O)c1cccc(Cl)c1", "reported.value": -14.4}
{"compound": "CCc1nc(N)nc(NCCC(=O)N2CCCC2)c1C", "reported.value": 9.291}
{"compound": "Cc1cc(C)n(CC2CCCCN2CCCS(=O)(=O)N(C)C)n1 (stereo not drawn)", "reported.value": 4.04}
